# assaySystem: GABA-A receptor; anion channel
# experiment: Non-competitive displacement of [35S]TBPS from picrotoxin binding site found in heterogeneous Gamma-aminobutyric acid A receptor in rat brain membranes.
pIC50: −log10 of the molar value.
outcomeMeasure: pIC50

INSERT INTO results (molecule, quantitativereadout) VALUES
  ('C[C@]12CC[C@@H](O)C[C@@H]1CC[C@H]1[C@@H]3CCC4C=CC(=O)C[C@@]43CC[C@@H]12 (some centres not stated)', 6.61),
  ('C[C@]12CC[C@@H](O)C[C@@H]1CC[C@H]1C3CCC4C(=O)C=CC[C@@]43CC[C@@H]12 (single isomer, unassigned)', 6.43),
  ('C[C@]12CC[C@@H](O)C[C@H]1CC[C@H]1C3CCC4C(=O)C=CC[C@@]43CC[C@@H]12 (single isomer, unassigned)', 5.80),
  ('C[C@]12CC[C@@H](O)C[C@H]1CC[C@H]1[C@@H]3CCC4C=CC(=O)C[C@@]43CC[C@@H]12 (some centres not stated)', 6.57),
  ('C[C@]12CC[C@@H](O)C[C@H]1CC[C@@H]1[C@@H]2CC[C@]23C(=O)C=CC[C@H]2CC[C@@H]13', 6.98),
  ('C[C@]12CC[C@@H](O)C[C@@H]1CC[C@H]1[C@@H]3CCC4CCC(=O)C[C@@]43CC[C@@H]12 (some centres not stated)', 6.48),
  ('C[C@]12CC[C@@H](O)C[C@@H]1CC[C@@H]1[C@@H]2CC[C@]23C(=O)CCCC2CC[C@@H]13 (some centres not stated)', 6.52);
